# Subject of test: recombinant BACE1 protein (Homo sapiens)
# Sequence (P56817 46-501): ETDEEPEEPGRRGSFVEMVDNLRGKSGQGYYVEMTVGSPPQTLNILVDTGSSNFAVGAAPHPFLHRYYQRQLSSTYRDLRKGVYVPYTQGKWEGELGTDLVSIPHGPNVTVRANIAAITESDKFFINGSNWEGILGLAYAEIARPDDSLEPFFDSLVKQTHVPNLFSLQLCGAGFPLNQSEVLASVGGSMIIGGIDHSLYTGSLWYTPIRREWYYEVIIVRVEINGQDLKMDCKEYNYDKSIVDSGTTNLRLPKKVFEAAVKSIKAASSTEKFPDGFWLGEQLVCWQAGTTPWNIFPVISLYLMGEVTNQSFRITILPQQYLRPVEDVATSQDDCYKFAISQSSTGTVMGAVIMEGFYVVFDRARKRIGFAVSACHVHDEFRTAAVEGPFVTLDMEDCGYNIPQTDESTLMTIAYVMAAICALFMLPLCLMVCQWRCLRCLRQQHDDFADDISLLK
# Assay procedure: Biochemical FRET based assay
# Recorded conditions: recombinant BACE1 1 μg/ml, 120 minutes at room temperature, pH 5.0; read-out: Biochemical FRET based assay pIC50 (converted)
Entries and their measured IC50 follow.
Record the value in nM, omitting the unit from your answer.

Reference set, count: 3
1. C[C@]1(c2cccc(NC(=O)c3ncc(Cl)cc3Cl)c2)N=C(N)CO[C@@]1(F)C(F)(F)F    263
2. COc1cncc(-c2cccc(C3(C)N=C(N)COC3(F)C(F)(F)F)c2)c1 (single isomer, unassigned) [Compound 118]    191
3. Cc1cc(Cl)cnc1C(=O)Nc1cccc([C@@]2(C3CC3)N=C(N)CO[C@H]2F)c1    123

**Query** Answer with the recorded IC50 of `C[C@]1(c2cc(-c3cncnc3)c(F)cc2F)N=C(N)CO[C@@]1(F)C(F)(F)F` only.
**Result** 1410

**Query** Respond only with IC50 recorded for `CC#Cc1cncc(-c2ccc(F)c([C@@]3(C4CC4)N=C(N)CO[C@H]3F)c2)c1`
**Result** 1380

**Query** Name the recorded IC50 of the compound listed here: `COc1cnc(C(=O)Nc2ccc(F)c([C@@]3(C)N=C(N)CO[C@]3(F)C(F)(F)F)c2)cn1`
**Result** 407

**Query** Could you please provide reported IC50 for `C[C@]1(c2cc(NC(=O)c3ncc(Cl)cc3Cl)ccc2F)N=C(N)CO[C@]1(F)C(F)(F)F` ? Thanks!
**Result** 166

**Query** Give the measured IC50 for `C[C@]1(c2cc(NC(=O)c3ncc(Cl)cc3F)ccc2F)N=C(N)CO[C@H]1C(F)(F)F`
**Result** 47.9

**Query** Tell me IC50 reported for COc1cncc(-c2cccc(C3(C)N=C(N)COC3(F)C(F)(F)F)c2)c1 (single isomer, unassigned) [Compound 119]
**Result** 11200

**Query** Identify measured IC50 associated with `NC1=N[C@@](c2cc(-c3cncc(Cl)c3)ccc2F)(C2CC2)[C@@H](F)OC1`
**Result** 2290

**Query** Supply reported IC50 belonging to this compound: `NC1=N[C@@](c2cccc(NC(=O)c3ncc(Cl)cc3F)c2)(C2CC2)[C@H](C(F)(F)F)OC1`
**Result** 33.1

**Query** Provide measured IC50 value, entry: `C[C@]1(c2cc(-c3cncc(F)c3)c(F)cc2F)N=C(N)CO[C@@H]1C(F)(F)F`
**Result** 1150

**Query** Identify measured IC50 associated with COc1cncc(-c2cccc(C3(C)N=C(N)COC3F)c2)c1 (single isomer, unassigned) [Compound 92]
**Result** 15100

====

Measurement kind: melting point (°C)
Give your result in °C as a bare value.

1) CC1(c2cccc(-c3cc(Cl)cc(Cl)c3)c2)COCC(N)=N1 (racemic)    197
2) COc1cncc(-c2ccc(F)c(C3(C)N=C(N)COC3C(F)(F)F)c2)c1 (stereo not shown)    196.9
3) N#Cc1ccc(C(=O)Nc2ccc(F)c([C@@]3(C4CC4)N=C(N)CO[C@H]3C(F)(F)F)c2)nc1    181.79

Now consider a different compound.
**Query** Return melting point for the following compound: COc1cncc(-c2cccc(C3(C)COCC(N)=N3)c2)c1 (single isomer, unassigned) [Compound 8]
**Result** 79.5

====

# System: Abeta 1-42
# Assay procedure: Cellular αLisa assay in SKNBE2 cells, Abeta 1-42
# Type: cell-based, human
# Recorded conditions: Homo sapiens, SKNBE2, 18 h, incubated for 18 hours, read-out: Cellular αLisa assay in SKNBE2 cells Abeta 42 pIC50 (converted)
IC50 vs 30 nM: less than gives 1 (yes); not less than gives 0 (no).

1. COc1cnc(C(=O)Nc2ccc(F)c([C@@]3(C)N=C(N)CO[C@@]3(F)C(F)(F)F)c2)cn1    0 (no)
2. NC1=N[C@@](c2cccc(NC(=O)c3ncc(Cl)cc3F)c2)(C2CC2)[C@@H](C(F)(F)F)OC1    0 (no)
3. COc1ccc(C(=O)Nc2cccc([C@@]3(C)N=C(N)CO[C@]3(F)C(F)(F)F)c2)nc1    1 (yes)
4. N#Cc1cncc(-c2ccc(F)c([C@@]3(C4CC4)N=C(N)CO[C@H]3F)c2)c1    0 (no)
5. N#Cc1cncc(-c2ccc(F)c([C@@]3(C4CC4)N=C(N)CO[C@@]3(F)C(F)(F)F)c2)c1    0 (no)
6. C[C@@]1(c2cc(-c3cncnc3)c(F)cc2F)COC2(CC2)C(N)=N1    0 (no)
7. CCC1(c2cc(NC(=O)c3ncc(C#N)cc3Cl)ccc2F)N=C(N)COC1C(F)(F)F (centres unmarked)    1 (yes)

Here is another molecule to look at.
**Query** Problem: For the molecule CC1(c2cc(-c3cncc(C#N)c3)ccc2F)N=C(N)COC1C(F)(F)F (centres unmarked) , is IC50 under 30 nM?
**Result** 0 (no)

====

# Subject of test: recombinant BACE1 protein (Homo sapiens)
# Assay procedure: Biochemical FRET based assay
# Recorded conditions: recombinant BACE1 1 μg/ml, 120 minutes at room temperature, pH 5.0
Measurement kind: Biochemical FRET based assay pIC50

1) CC1(c2cc(-c3cncnc3)c(F)cc2F)COCC(N)=N1 (single isomer, unassigned) [Compound 55]    5.55
2) N#Cc1ccc(C(=O)Nc2ccc(F)c(C3(C4CC4)N=C(N)COC3F)c2)nc1 (stereo not shown) [Compound 215]    6.3
3) CC#Cc1cncc(-c2ccc(F)c(C3(C4CC4)N=C(N)COC3F)c2)c1 (stereo not shown) [Compound 292]    6.17

Pending molecule:
**Query** Identify measured Biochemical FRET based assay pIC50 associated with CC1(c2cc(NC(=O)c3ccc(C(F)(F)F)cn3)c(F)cc2F)COCC(N)=N1 (racemic) [Compound 13]
**Result** 5.37

====

# System: Abeta 1-42
# Assay procedure: Cellular αLisa assay in SKNBE2 cells, Abeta 1-42
# Type: cell-based, human
# Recorded conditions: Homo sapiens, SKNBE2, 18 h, incubated for 18 hours, read-out: Cellular αLisa assay in SKNBE2 cells Abeta 42 pIC50 (converted)
# Method: Cellular αLisa Assay in SKNBE2 Cells In two αLisa assays the levels of Abeta total and Abeta 1-42 produced and secreted into the medium of human neuroblastoma SKNBE2 cells are quantified. […] Abeta total and Abeta 1-42 are measured by sandwich αLisa. αLisa is a sandwich assay using biotinylated antibody AbN/25 attached to streptavidin coated beads and antibody Ab4G8 or cAb42/26 conjugated acceptor beads for the detection of Abeta total and Abeta 1-42 respectively. […]
Doc: threshold 200 nM (exclusive). Items with IC50 beneath it return criterion met; others return criterion not met.

1) C[C@@]1(c2cccc(NC(=O)c3ccc(Cl)cn3)c2)COC2(CC2)C(N)=N1    criterion met
2) N#Cc1ccc(C(=O)Nc2ccc(F)c([C@@]3(C4CC4)N=C(N)CO[C@H]3C(F)(F)F)c2)nc1    criterion met
3) N#Cc1ccc(C(=O)Nc2ccc(F)c([C@@]3(C4CC4)N=C(N)CO[C@@]3(F)C(F)(F)F)c2)nc1    criterion met
4) NC1=N[C@@](c2cccc(NC(=O)c3ncc(Cl)cc3F)c2)(C2CC2)[C@H](F)OC1    criterion met
5) COc1cnc(C(=O)Nc2cccc(C3(C)N=C(N)COC3F)c2)cn1 (stereo not shown)    criterion met
6) C[C@]1(c2cc(-c3cncnc3)c(F)cc2F)N=C(N)CO[C@@H]1F (single isomer, unassigned)    criterion not met

**Query** Find out if reported IC50 for `NC1=N[C@@](c2cc(NC(=O)c3ncc(Cl)cc3F)ccc2F)(C2CC2)[C@H](F)OC1` is less than 200 nM
**Result** criterion not met

**Query** State whether 200 nM exceeds IC50 recorded for `NC1=N[C@@](c2cccc(-c3cncnc3)c2)(C2CC2)[C@@H](C(F)(F)F)OC1` .
**Result** criterion met

**Query** Consider the compound CC1(c2cc(-c3cncnc3)c(F)cc2F)N=C(N)COC1F (stereo not shown) [Compound 84] . Is its IC50 strictly less than 200 nM?
**Result** criterion not met

**Query** Consider the compound COc1cnc(C(=O)Nc2ccc(F)c(C3(C)N=C(N)COC3F)c2)cn1 (stereo not shown) [Compound 79] . Is its IC50 strictly less than 200 nM?
**Result** criterion met

**Query** State whether 200 nM exceeds IC50 recorded for `C[C@]1(c2cccc(NC(=O)c3ccc(C#N)cn3)c2)N=C(N)CO[C@]1(F)C(F)(F)F` .
**Result** criterion met

**Query** Does CC1(c2cc(NC(=O)c3ncc(Cl)cc3Cl)ccc2F)N=C(N)COC1F (stereo not shown) have IC50 strictly under 200 nM?
**Result** criterion met

**Query** IC50 strictly < 200 nM for this compound? `Cc1cc(Cl)cnc1C(=O)Nc1ccc(F)c([C@@]2(C3CC3)N=C(N)CO[C@@H]2F)c1`
**Result** criterion met

**Query** is_below(IC50, 200 nM) for `C[C@]1(c2cc(-c3cncnc3)c(F)cc2F)N=C(N)CO[C@]1(F)C(F)(F)F` ?
**Result** criterion not met

**Query** Does the reported IC50 of `NC1=N[C@@](c2cc(NC(=O)c3ncc(Cl)cc3Cl)ccc2F)(C2CC2)[C@@H](F)OC1` stay below 200 nM?
**Result** criterion met

**Query** Hi there! Is IC50 for CC1(c2cccc(NC(=O)c3ncccc3F)c2)COCC(N)=N1 (racemic) below 200 nM, do you know?
**Result** criterion not met
